Cited source for all entries: patent US9399032B2

System: MCH58 fibroblasts
experimentalProtocol: Glucose versus galactose cell growth screen (metabolic state-dependent lethality)
conditionParameters: approximately 10 μM compound, 72 hours; log10 fold change of normalized cell number in glucose versus galactose
Counter-ions that a name gives are not always drawn.
This listing pairs molecules with measured Sglu/gal (log10 fold change) Score.
Lab note: jot the number down without any unit.

CC[C@]1(O)C[C@@H]2CN(CCc3c([nH]c4ccccc34)[C@@](C(=O)OC)(c3cc4c(cc3OC)N(C)[C@H]3[C@@](O)(C(=O)OC)[C@H](OC(C)=O)[C@]5(CC)C=CCN6CC[C@]43[C@@H]65)C2)C1 [vinblastine sulfate] : −0.27
CC[C@@]1(O)C[C@H](O[C@H]2C[C@H](N(C)C)[C@H](O)[C@H](C)O2)c2c(cc3c(c2O)C(=O)c2c(O)ccc(O)c2C3=O)[C@H]1C(=O)OC [pyrromycin] : −0.30
COC(=O)[C@]1(C)CC[C@]2(C)CC[C@]3(C)C4=CCc5c(cc(O)c(O)c5C)[C@]4(C)CC[C@@]3(C)[C@@H]2C1 [pristimerol] : −0.45
CC(C)=CCC[C@]1(C)C=Cc2c(O)c3c(c(CC=C(C)C)c2O1)O[C@]12C(=C[C@@H]4C[C@H]1C(C)(C)O[C@@]2(C/C=C(/C)C(=O)O)C4=O)C3=O [gambogic acid] : −0.34

Alright, here's another molecule for you.
Ask: # input molecule: CC(C)c1c(O)ccc2c1CCC1C(C)(C(=O)O)CCCC21C (centres unmarked) [Totarol-19-carboxylic acid] ; wanted: its Sglu/gal (log10 fold change) Score
Reply: 0.80
